system-under-test: furin, P09958;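 also: purified furin at 1:10 enzyme:substrate in 50 mM HEPES pH 7.5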
Sequence (P09958 whole entry): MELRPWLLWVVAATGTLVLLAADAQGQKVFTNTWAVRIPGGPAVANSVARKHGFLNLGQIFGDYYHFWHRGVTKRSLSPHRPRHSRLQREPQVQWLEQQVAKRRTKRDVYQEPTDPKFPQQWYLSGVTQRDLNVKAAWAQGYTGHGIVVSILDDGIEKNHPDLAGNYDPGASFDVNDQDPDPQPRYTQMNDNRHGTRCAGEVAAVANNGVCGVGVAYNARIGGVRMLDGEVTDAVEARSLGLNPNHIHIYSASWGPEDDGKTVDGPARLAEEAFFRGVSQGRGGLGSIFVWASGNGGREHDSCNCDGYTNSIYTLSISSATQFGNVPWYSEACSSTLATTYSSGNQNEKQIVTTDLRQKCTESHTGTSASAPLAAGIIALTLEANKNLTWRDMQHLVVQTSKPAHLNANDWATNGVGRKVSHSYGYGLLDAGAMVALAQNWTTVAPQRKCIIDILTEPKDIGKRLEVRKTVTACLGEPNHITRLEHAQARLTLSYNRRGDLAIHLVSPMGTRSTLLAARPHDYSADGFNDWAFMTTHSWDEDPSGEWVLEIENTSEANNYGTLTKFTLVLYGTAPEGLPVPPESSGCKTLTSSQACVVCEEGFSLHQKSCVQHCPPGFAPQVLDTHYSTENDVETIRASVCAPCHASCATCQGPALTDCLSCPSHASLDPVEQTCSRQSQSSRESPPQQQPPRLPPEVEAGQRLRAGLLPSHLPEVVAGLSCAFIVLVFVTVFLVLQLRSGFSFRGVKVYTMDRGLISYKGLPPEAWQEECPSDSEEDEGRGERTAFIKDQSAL
measurement-description: furin cleavage Z-score vs untreated control; higher = more cleavage, active = 3.5 or more, inactive = 1 or less, 8 variable residues between constant flanks
test-settings: 30 min
Some of the results follow. The hit rate among all sequences tested is not known here.
readout-name: furin cleavage Z-score
No unit in the answer, only the number.

1) CALLRRQIRTAGNASASA [FS-1642] ... 8.78
2) CATSLTGRDKAGNASASA [HC683] ... 0.633
3) CARSGRHVVFAGNASASA [FS-3079] ... 1.42
4) CAGDEVDGAGAGNASASA [CS5] ... -2.65
5) CARPRRAKRFAGNASASA [FS-1069] ... 9.13

Ask: Requested read-out: furin cleavage Z-score. Entry: CADQRPYCWHAGNASASA [HC401]
Result: 1.33

Ask: Endpoint output: furin cleavage Z-score of CAHERRMKRFAGNASASA [FS-791] . Value?
Result: 9.74
